biological target: T1, aggregated A-beta(1-40) peptide (BAA) (human); test: BAA ELISA
T1 construct: also called A-beta peptide aggregates
measurementType: pEC50
Bear in mind: pEC50 is minus log10 of a mol/L concentration; give just that figure.

binder: ABII60A10 = ABII050 (VHH) VHH: EVQLVESGGGLVQAGGSLRLSCAASGRTFNNYNMGWFRQAPGKEREFVAAVSRSGVSTYYADSVKGRFTISRDNAKNAVYLQMNSLKPEDTAIYYCGAAYRGTAINVRRSYDSWGQGTQVTVSS
pEC50: 9.10

binder: ABII42D4 (VHH, also called ABIIPMP42D4) VHH: EVQLVESGGGLVLAGGSLRLSCVHSGPTFSTDTMGWFRQAPGKEREFVAAVTWNSGRTNYADSVKGRFTVSRDNTRNAAYLQMSGLKDEDTAVYYCTAHRLVVGGTSVGDWRYWGQGTQVTVSS
pEC50: 9.05

binder: Fab fragment of monoclonal antibody m266 (Fab, V domains shown, also called Fab266; m266Fab) VH: EVKLVESGGGLVQPGGSLKLSCAVSGFTFSRYSMSWVRQTPEKRLELVAQINSVGNSTYYPDTVKGRFTISRDNAEYTLSLQMSGLRSDDTATYYCASGDYWGQGTTLTVSS VL: DVVMTQTPLSLPVSLGDQASISCRSSQSLIYSDGNAYLHWFLQKPGQSPKLLIYKVSNRFSGVPDRFSGSGSGTDFTLKISRVETEDLGVYFCSQSTHVPWTFGGGTKLEIK
pEC50: 8.74

binder: reference VHH 2G6 (VHH, from WO2006/40153) VHH: QVKLEESGGGLVQPGGSLRLSCAASGFTFSNYWMYWVRQAPGKGLEWVSTISPRAANTYYADSVKGRFTISRDNAKNTLYLQMNSLEPDDTALYYCAKSLRYRDRPQSSDFLFWRQGTQVTVSS
pEC50: 8.14

Lookup result for reference VHH 2D2 (VHH, from WO2006/40153, made and purified like the other VHHs) VHH: AVQLVDSGGGLVQAGGSLRLSCAVSGGTFSSIGMGWFRQAPGKEREFVGAISRSGDSTYYADSVKGRFTISRDGAKNTVYLQMNSLKDEDTAVYYCAGRPAGTAINIRRSYNYWGQGTQVTVSS ; measured pEC50: 8.33
